- Measured Target: Man(a1-2)Man(a1-2)Man(a1-6)[Man(a1-3)]Man
- Experiment Notes: glycan array binding signal (z-score within array); higher = stronger binding
- Condition Info: glycan notation: IUPAC condensed, linker removed
Only a selection was taken, and the strongest signals are over-represented in it overall.
Assign Y whenever glycan array binding signal (z-score) does not fall below 4; assign N whenever it does.

CVNH0 (Neurospora crassa), Q7S6U4 (protein) GSHIGPYMSFHVTAEDARIEVRDNRTILFARLRREDGEWNDASYELDQIIGNNDGHFQWGGQNFTETAEDIRFHPKEGAAEQPILRARLRDCNGEFHDRDVNLTEIVENVNGEFQAKF : N
RegIIIalpha (Mus musculus), O09037 (protein) MLPHLVLNSISWMLLSCLLFVFQVQGEDFQKEVPSPRTSCPMGYKAYRSHCYALVMTPKSWFQADLVCQKRPSGHLVSILSGGEASFVSSLVNGRVDNYQDIWIGLHDPTMGQQPNGGGWEWSNSDVLNYLNWDGDPSSTVNRGHCGSLTASSGFLKWGDYYCDGTLPFVCKFKQ : N
Dectin2 (Homo sapiens), Q6EIG7 (protein) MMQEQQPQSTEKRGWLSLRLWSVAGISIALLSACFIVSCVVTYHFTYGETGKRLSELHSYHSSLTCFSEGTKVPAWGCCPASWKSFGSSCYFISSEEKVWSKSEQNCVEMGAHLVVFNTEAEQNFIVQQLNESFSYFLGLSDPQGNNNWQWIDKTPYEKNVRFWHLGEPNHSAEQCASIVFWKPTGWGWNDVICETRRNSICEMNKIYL : Y

hey, is glycan array binding signal (z-score) for this one >= 4? NcCVNHO (Neurospora crassa), Q7S6U4 (protein) MSFHVTAEDARIEVRDNRTILFARLRREDGEWNDASYELDQIIGNNDGHFQWGGQNFTETAEDIRFHPKEGAAEQPILRARLRDCNGEFHDRDVNLTEIVENVNGEFQAKF
Y

hey, is glycan array binding signal (z-score) for this one >= 4? CTLY 1 (Homo sapiens), Q6ZS10 (protein) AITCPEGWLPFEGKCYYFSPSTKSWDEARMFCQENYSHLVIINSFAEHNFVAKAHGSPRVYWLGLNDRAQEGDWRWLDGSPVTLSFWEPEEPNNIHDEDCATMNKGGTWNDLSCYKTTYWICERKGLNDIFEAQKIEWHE
Y

hey, is glycan array binding signal (z-score) for this one >= 4? CVN (Nostoc ellipsosporum), P81180 (protein) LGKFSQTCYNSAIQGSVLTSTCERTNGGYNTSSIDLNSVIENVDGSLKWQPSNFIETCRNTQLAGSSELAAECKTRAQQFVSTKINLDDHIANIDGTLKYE
Y

hey, is glycan array binding signal (z-score) for this one >= 4? Drgal1 (Danio rerio) (protein) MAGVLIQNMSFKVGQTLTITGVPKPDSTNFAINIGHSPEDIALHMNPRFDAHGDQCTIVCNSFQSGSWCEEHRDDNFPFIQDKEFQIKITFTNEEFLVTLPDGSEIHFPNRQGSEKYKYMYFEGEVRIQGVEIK
N

hey, is glycan array binding signal (z-score) for this one >= 4? HML-Native (Hypnea musciformis), P84871 (protein) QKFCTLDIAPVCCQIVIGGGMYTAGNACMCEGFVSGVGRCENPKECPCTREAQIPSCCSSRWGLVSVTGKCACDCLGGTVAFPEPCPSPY
N
